# maps each entry to its GI50
tested on: UACC-62; assay: NCI tumour cell line growth inhibition, 48 h
Active and inactive are the calls of the source. No stated cut-off is given here; in the data, active = GI50 up to about 1.1 µM and inactive = higher.

Worked set:
Cc1ccc(CC2(C(=O)O)Cc3ccc(C)cc3C2)cc1 (stereo not drawn)
56.5 µM (inactive)
CC(C)=CC(=O)c1[nH]c2ccccc2c1CC(=O)NCCc1c[nH]cn1
> 100 µM (inactive)
CC1(C)C/C(=N/O)c2c(nc3ccc4ccccc4c3c2-c2ccc(Cl)cc2)C1
17.3 µM (inactive)

Let's switch to this molecule now.
Lab note: record GI50 of O=C(CCCC1Cc2ccccc2C1=O)c1ccccc1 (stereo not drawn) tested on UACC-62.
69.5 µM (inactive)
